assaySystem: full-length human HPK1 (MAP4K1) (Homo sapiens (Human), UniProt Q92918)
Sequence (Q92918 whole entry): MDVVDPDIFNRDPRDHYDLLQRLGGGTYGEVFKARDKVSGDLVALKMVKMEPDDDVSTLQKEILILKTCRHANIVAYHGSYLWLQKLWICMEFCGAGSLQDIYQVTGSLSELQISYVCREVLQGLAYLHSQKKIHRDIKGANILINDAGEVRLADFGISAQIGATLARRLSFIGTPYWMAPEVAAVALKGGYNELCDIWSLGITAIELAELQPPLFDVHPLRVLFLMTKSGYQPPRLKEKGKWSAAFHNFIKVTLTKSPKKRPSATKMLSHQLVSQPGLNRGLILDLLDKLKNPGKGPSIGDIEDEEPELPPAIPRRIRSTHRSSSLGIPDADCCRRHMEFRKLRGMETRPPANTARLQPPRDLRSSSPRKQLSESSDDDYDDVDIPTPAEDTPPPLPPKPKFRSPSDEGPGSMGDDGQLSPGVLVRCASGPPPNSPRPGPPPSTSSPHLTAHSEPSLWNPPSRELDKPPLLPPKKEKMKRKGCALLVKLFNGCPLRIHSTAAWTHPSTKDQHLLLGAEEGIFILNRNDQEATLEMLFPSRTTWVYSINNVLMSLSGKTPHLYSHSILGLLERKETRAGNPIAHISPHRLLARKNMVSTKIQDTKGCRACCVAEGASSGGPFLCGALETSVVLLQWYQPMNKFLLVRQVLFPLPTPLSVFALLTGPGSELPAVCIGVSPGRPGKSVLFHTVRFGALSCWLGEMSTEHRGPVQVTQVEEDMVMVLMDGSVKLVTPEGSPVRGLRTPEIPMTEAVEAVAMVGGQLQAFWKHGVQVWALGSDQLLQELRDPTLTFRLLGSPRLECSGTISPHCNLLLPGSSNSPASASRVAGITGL
experimentDescription: HPK1 kinase assay (biochemical, ADP-Glo)
setupConditions: GST-HPK1 3.2 nM, 10 μM ATP, MBP substrate, ADP-Glo; read-out: HPK1 enzymatic IC50
Procedure: HPK1 kinase assay (Biochemical assay). A recombinant fusion protein consisting of full-length human HPK1 (MAP4K1) with an N-terminal Glutatione S-transferase (GST) tag was produced in insect cells Sf21 using the baculovirus expression system. […] The plate was transferred to a Perkin Elmer EnVision (2104 Multilabel Reader) for luminescence detection and percent inhibition activity and IC50 value were determined using Genedata Screener.
Structures can show the parent of a compound that is named as a salt.
# reported IC50; entries follow
quantityKind: IC50

# compound, assaySystem, quantityKind, experimentalResult
rows = [
    ("COc1ccccc1-c1cc(C(N)=O)c2ncnc(N[C@H]3CCCNC3)c2n1", "full-length human HPK1 (MAP4K1) (Homo sapiens (Human), UniProt Q92918)", "IC50", "< 100 nM"),
    ("C[C@@H]1CN(Cc2ccc(-c3cc(C(N)=O)c4ncnc(N[C@H]5CCCNC5)c4n3)cc2)CCO1 [Example 69, dihydrochloride]", "full-length human HPK1 (MAP4K1) (Homo sapiens (Human), UniProt Q92918)", "IC50", "< 100 nM"),
    ("NC(=O)c1cc(-c2ccc(CN3CC[C@H](F)C3)cc2)nc2c(N[C@H]3CCCNC3)ncnc12", "full-length human HPK1 (MAP4K1) (Homo sapiens (Human), UniProt Q92918)", "IC50", "< 100 nM"),
    ("C[C@H]1CN(Cc2ccc(-c3cc(C(N)=O)c4ncnc(N[C@H]5CCCNC5)c4n3)cc2)CCO1 [Example 27, dihydrochloride]", "full-length human HPK1 (MAP4K1) (Homo sapiens (Human), UniProt Q92918)", "IC50", "< 100 nM"),
    ("NC(=O)c1cc(CC2CCOCC2)nc2c(N[C@H]3CCCNC3)ncnc12", "full-length human HPK1 (MAP4K1) (Homo sapiens (Human), UniProt Q92918)", "IC50", "> 1000 nM"),
    ("CC(C)(O)C(F)(F)Oc1ccc(-c2cc(C(N)=O)c3ncnc(N[C@H]4CCCNC4)c3n2)cc1", "full-length human HPK1 (MAP4K1) (Homo sapiens (Human), UniProt Q92918)", "IC50", "< 100 nM"),
    ("Cc1nn(C)cc1-c1cc(C(N)=O)c2ncnc(N[C@@H]3CNC[C@@H](F)C3)c2n1", "full-length human HPK1 (MAP4K1) (Homo sapiens (Human), UniProt Q92918)", "IC50", "< 100 nM"),
    ("NC(=O)c1cc(-c2ccc(F)cc2)nc2c(N[C@H]3CCCNC3)ncnc12", "full-length human HPK1 (MAP4K1) (Homo sapiens (Human), UniProt Q92918)", "IC50", "< 100 nM"),
    ("NC(=O)c1cc(CC2CCOC2)nc2c(N[C@H]3CCCNC3)ncnc12 (stereo partly shown)", "full-length human HPK1 (MAP4K1) (Homo sapiens (Human), UniProt Q92918)", "IC50", "> 1000 nM"),
    ("NC(=O)c1cc(-c2cnn(C3CC3)c2)nc2c(N[C@@H]3CNC[C@@H](F)C3)ncnc12", "full-length human HPK1 (MAP4K1) (Homo sapiens (Human), UniProt Q92918)", "IC50", "< 100 nM"),
    ("NC(=O)c1cc(-c2cc(F)c(OCC3(O)CCC3)c(F)c2)nc2c(N[C@@H]3CNC[C@@H](F)C3)ncnc12", "full-length human HPK1 (MAP4K1) (Homo sapiens (Human), UniProt Q92918)", "IC50", "< 100 nM"),
    ("COCCOc1ccc(-c2cc(C(N)=O)c3ncnc(N[C@@H]4CNCC[C@H]4F)c3n2)cc1", "full-length human HPK1 (MAP4K1) (Homo sapiens (Human), UniProt Q92918)", "IC50", "< 100 nM"),
    ("NC(=O)c1cc(-c2ccc(OC(F)(F)F)cc2)nc2c(N[C@H]3CCCNC3)ncnc12", "full-length human HPK1 (MAP4K1) (Homo sapiens (Human), UniProt Q92918)", "IC50", "< 100 nM"),
    ("NC(=O)c1cc(-c2cc(F)c(OCC3(O)CCOCC3)c(F)c2)nc2c(N[C@@H]3CNC[C@@H](F)C3)ncnc12", "full-length human HPK1 (MAP4K1) (Homo sapiens (Human), UniProt Q92918)", "IC50", "< 100 nM"),
    ("NC(=O)c1cc(C=C2CCOC2)nc2c(N[C@H]3CCCNC3)ncnc12 (stereo in doubt)", "full-length human HPK1 (MAP4K1) (Homo sapiens (Human), UniProt Q92918)", "IC50", "100 to 1000 nM"),
    ("COCCOc1ccc(-c2cc(C(N)=O)c3ncnc(N[C@H]4CCCNC4)c3n2)cc1", "full-length human HPK1 (MAP4K1) (Homo sapiens (Human), UniProt Q92918)", "IC50", "< 100 nM"),
]
